- Tested on: DMS-273 (Small Cell Lung Carcinoma)
- Method Notes: Bliss excess, mean over the matrix (fraction); higher = more synergy;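 further: after 72 h of two-drug dosing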
Quantity Kind: Bliss excess
Answer with a number only.

Tell me the measured Bliss excess of Cc1nc(Nc2ncc(C(=O)Nc3c(C)cccc3Cl)s2)cc(N2CCN(CCO)CC2)n1 [Dasatinib] + CC(=O)Nc1cccc(-n2c(=O)n(C3CC3)c(=O)c3c(Nc4ccc(I)cc4F)n(C)c(=O)c(C)c32)c1 [Trametinib] (first compound max 2 µM, 7x7, partner max 1 µM) , please.
-0.0922

Please look up its Bliss excess: COc1cccc(OCCCN)c1-c1cc(Nc2cnc(C#N)cn2)n[nH]1 [Prexasertib] + C=CCn1c(=O)c2cnc(Nc3ccc(N4CCN(C)CC4)cc3)nc2n1-c1cccc(C(C)(C)O)n1 [AZD1775] (first compound max 1 µM, partner max 1 µM)
0.0795

Fill in: Bliss excess of COc1nnc2ccc(N3CCC(c4ccc(OCCN5CCN(C)C(=O)[C@H]5C)cc4)CC3)nn12 [AZD5153] + Cc1c2c(nn1C)CSCc1cc(n(C)n1)CSc1cc(c3ccccc3c1)OCCCc1c(C(=O)O)n(C)c3c-2c(Cl)ccc13 [AZD5991] (first compound max 1 µM, 7x7, partner max 1 µM) is ___
-0.1

Look up Bliss excess: C=CCn1c(=O)c2cnc(Nc3ccc(N4CCN(C)CC4)cc3)nc2n1-c1cccc(C(C)(C)O)n1 [AZD1775] + O=C(c1cc(Cc2n[nH]c(=O)c3ccccc23)ccc1F)N1CCN(C(=O)C2CC2)CC1 [Olaparib] (first compound max 1 µM, partner max 10 µM)
-0.0334

* * *

Would you kindly list Bliss excess for each of these molecules?
- Tested on: C3A (Hepatocellular Carcinoma)
- Method Notes: Bliss excess, mean over the matrix (fraction); higher = more synergy
Please give only the number in your answer, with no unit.

So what does the record say about Bliss excess for Cn1cnc2c(F)c(Nc3ccc(Br)cc3Cl)c(C(=O)NOCCO)cc21 [Selumetinib] + C[C@@H]1COCCN1C2=NC(=NC(=C2)C3(CC3)[S@](=N)(=O)C)C4=C5C=CNC5=NC=C4 [AZD6738] (first compound max 10 µM, 7x7, partner max 10 µM) ?
0.0471

So what's the measured Bliss excess for this one? CC1(C)CCC(CN2CCN(c3ccc(C(=O)NS(=O)(=O)c4ccc(NCC5CCOCC5)c([N+](=O)[O-])c4)c(Oc4cnc5[nH]ccc5c4)c3)CC2)=C(c2ccc(Cl)cc2)C1 [Venetoclax] + CCN(CCO)CCCOc1ccc2c(Nc3cc(CC(=O)Nc4cccc(F)c4)[nH]n3)ncnc2c1 [AZD2811] (first compound max 1 µM, 7x7, partner max 1 µM)
-0.0359

Return reported Bliss excess; argument: CN(CCO)CC[C@H](CSc1ccccc1)Nc1ccc(S(=O)(=O)NC(=O)c2ccc(N3CCC([C@@H](O)c4ccccc4-c4ccc(Cl)cc4)CC3)cc2)cc1S(=O)(=O)C(F)(F)F [AZD4320] + C=CCn1c(=O)c2cnc(Nc3ccc(N4CCN(C)CC4)cc3)nc2n1-c1cccc(C(C)(C)O)n1 [AZD1775] (first compound max 1 µM, partner max 1 µM)
-0.0619

I have this molecule here, CN(C)CCCOc1ccc(-c2ccc3ncc4c(c3c2)n(C2CCOCC2)c(=O)n4C)cn1 [AZD0156] + CCN(CCO)CCCOc1ccc2c(Nc3cc(CC(=O)Nc4cccc(F)c4)[nH]n3)ncnc2c1 [AZD2811] (first compound max 1 µM, 7x7, partner max 1 µM) , and I need its recorded Bliss excess.
-0.0792

Can you share its Bliss excess? I mean this molecule: COc1nnc2ccc(N3CCC(c4ccc(OCCN5CCN(C)C(=O)[C@H]5C)cc4)CC3)nn12 [AZD5153] + Cc1c2c(nn1C)CSCc1cc(n(C)n1)CSc1cc(c3ccccc3c1)OCCCc1c(C(=O)O)n(C)c3c-2c(Cl)ccc13 [AZD5991] (first compound max 1 µM, 7x7, partner max 1 µM)
-0.0262

Given the molecule COc1cccc(OCCCN)c1-c1cc(Nc2cnc(C#N)cn2)n[nH]1 [Prexasertib] + C[C@@H]1COCCN1C2=NC(=NC(=C2)C3(CC3)[S@](=N)(=O)C)C4=C5C=CNC5=NC=C4 [AZD6738] (first compound max 1 µM, 7x7, partner max 10 µM) , what is its reported Bliss excess?
-0.034

What does the data say about its Bliss excess? Entry: NC1(C(=O)N[C@@H](CCO)c2ccc(Cl)cc2)CCN(c2ncnc3[nH]ccc23)CC1 [Capivasertib] + CC(=O)c1c(C)c2cnc(Nc3ccc(N4CCNCC4)cn3)nc2n(C2CCCC2)c1=O [Palbociclib] (first compound max 10 µM, 7x7, partner max 10 µM)
0.0164
